# Test system: D.T.H. response in mice immunized with SRBC as antigen
# method.description: D.T.H. footpad test in mice immunized with SRBC, Examples 3-6 (dosages per mouse)
# Assay type: in vivo
# applied.conditions: Table 7; oral 1 mcg/mouse
assay.endpoint: Increase in thickness of footpad (± S.D.) (× 0.1 mm)
Give the number; × 0.1 mm is assumed, so skip it.

Quickly give me recorded Increase in thickness of footpad (± S.D.) for COC(=O)[C@@H](O)[C@H](N)Cc1ccccc1.Cl [(2S,3R)-AHPA methylester hydrochloride]
11.7

# return recorded Increase in thickness of footpad (± S.D.) for entry NC(=O)[C@@H](O)[C@H](N)Cc1ccccc1 [(2S,3R)-AHPA amide]
9.8

State, in one line, measured Increase in thickness of footpad (± S.D.) of N[C@H](Cc1ccccc1)[C@H](O)C(=O)O [(2S,3R)-AHPA]
11.7

For the compound CC(C)C[C@H](NC(=O)[C@@H](O)[C@H](N)Cc1ccccc1)C(=O)O [Bestatin] , give its measured Increase in thickness of footpad (± S.D.) value.
11.6

---

# Test system: D.T.H. response in mice immunized with sheep red blood cell (SRBC)
# method.description: Delayed Type Hypersensitivity (D.T.H.) footpad test in mice immunized with SRBC, Example 2
# Type: in vivo, mouse
# applied.conditions: oral 0.5 mg/kg at immunization; CDF1 mice; control = 100
Provide the reported Degree of swelling of each item.

Hello, please tell me recorded Degree of swelling for this one: CC(C)C[C@H](NC(=O)[C@@H](O)[C@H](N)Cc1ccccc1)C(=O)N[C@H](CCCNC(=N)N)C(=O)O
134%

Specify Degree of swelling for CC(C)C[C@H](NC(=O)[C@@H](O)[C@H](N)Cc1ccccc1)C(=O)N[C@@H](CCCNC(=N)N)C(=O)O and stop.
135%

Using known records, supply Degree of swelling for CC(C)C[C@@H](CO)NC(=O)[C@@H](O)[C@H](N)Cc1ccccc1
126%

Specify measured Degree of swelling for Cl.N[C@H](Cc1ccccc1)[C@H](O)CO .
129%

Return Degree of swelling (reported value) for this compound: CC(C)C[C@H](NC(=O)[C@H](CC(C)C)NC(=O)[C@@H](O)[C@H](N)Cc1ccccc1)C(=O)O
120%

Read off the recorded Degree of swelling for CC(=O)N[C@H](Cc1ccccc1)[C@H](O)C(=O)N[C@H](CO)CC(C)C
131%

Note Degree of swelling for the compound shown: CC(C)C[C@H](NC(=O)[C@@H](O)[C@H](N)Cc1ccccc1)C(=O)N[C@H](CC(C)C)C(=O)O
120%

Indicate its recorded Degree of swelling; the compound in question is CC(C)C[C@H](NC(=O)[C@@H](O)[C@H](N)Cc1ccccc1)C(=O)O
140-150%

---

# target.system: aminopeptidase B (Rattus norvegicus)
# Sequence (O09175 1-650): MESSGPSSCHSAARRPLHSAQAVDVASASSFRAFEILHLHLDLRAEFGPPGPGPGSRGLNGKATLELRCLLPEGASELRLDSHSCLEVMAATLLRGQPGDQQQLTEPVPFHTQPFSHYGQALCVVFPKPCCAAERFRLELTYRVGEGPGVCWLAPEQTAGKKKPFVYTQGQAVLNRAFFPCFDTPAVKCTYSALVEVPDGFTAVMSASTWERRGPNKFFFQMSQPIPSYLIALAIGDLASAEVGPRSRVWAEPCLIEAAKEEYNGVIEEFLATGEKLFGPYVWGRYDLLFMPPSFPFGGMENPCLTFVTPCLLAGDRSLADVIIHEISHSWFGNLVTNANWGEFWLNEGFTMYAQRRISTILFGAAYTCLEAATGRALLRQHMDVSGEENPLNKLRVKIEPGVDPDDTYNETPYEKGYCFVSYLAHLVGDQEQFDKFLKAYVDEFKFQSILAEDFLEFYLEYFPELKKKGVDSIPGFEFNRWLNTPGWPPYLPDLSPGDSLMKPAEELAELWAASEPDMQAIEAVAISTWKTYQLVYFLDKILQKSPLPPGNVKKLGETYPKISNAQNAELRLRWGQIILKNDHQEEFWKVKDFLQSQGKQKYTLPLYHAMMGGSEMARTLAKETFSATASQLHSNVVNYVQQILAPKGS
# method.description: aminopeptidase B-inhibiting activity (modified Hopsu method, arginine β-naphthylamide substrate)
# Assay type: biochemical
# applied.conditions: 37° C., pH 7.0, 30 minutes
Could you please mark Y for values of IC50 below 5 µg/mL and N for values at or above it?

In plain terms, does CC(C)C[C@@H](CO)NC(=O)[C@@H](O)[C@H](N)Cc1ccccc1 come in under 5 µg/mL for IC50?
Y

State whether 5 µg/mL exceeds IC50 recorded for CC(C)C[C@@H](CO)NC(=O)[C@H](CC(C)C)NC(=O)C(O)[C@H](N)Cc1ccccc1 (some centres unmarked) .
N

Input CC(C)C[C@H](NC(=O)[C@@H](O)[C@H](N)Cc1ccccc1)C(=O)N[C@@H](CCCNC(=N)N)C(=O)O ; condition: IC50 strictly below 5 µg/mL. Does it hold?
Y

Regarding CC(C)C[C@H](NC(=O)[C@@H](O)[C@H](N)Cc1ccccc1)C(=O)N[C@@H](CC(N)=O)C(=O)O , kindly confirm whether its IC50 is beneath 5 µg/mL.
N

Take the molecule CC(C)C[C@H](NC(=O)[C@@H](O)[C@H](N)Cc1ccccc1)C(=O)N[C@H](CCCNC(=N)N)C(=O)O and say whether its IC50 is less than 5 µg/mL.
Y
